# assay-comment: Cell cytotoxicity test: protection of HT22 cells against glutamate toxicity (EC50) and cytotoxicity of the compounds (CC50), MTT
# Assay type: cell-based, mouse
# condition-set: mouse, HT22 cells (mouse hippocampal neuron)
Counter-ions that a name gives are not always drawn.
hey, just use Yes if measured CC50 at 24 h is less than 20 µM, otherwise No

| compound | class |
| --- | --- |
| CS(=O)(=O)Nc1ccccc1Nc1c(O)cc2c(c1Cl)C[C@@H]1NCC[C@]23CCCC[C@H]13 [Example 133, TFA salt] | Yes |
| Oc1ccc2c(c1)[C@]13CCCC[C@@H]1[C@H](C2)NCC3 [3-HM•HBr, (+)-3-hydroxymorphinan HBr, reference compound] | No |
| Oc1cc2c(cc1Nc1ccccc1F)C[C@@H]1NCC[C@]23CCCC[C@H]13 [Example 38, TFA salt] | Yes |
| Oc1cc2c(cc1-c1ccc(Cl)cc1Cl)C[C@@H]1NCC[C@]23CCCC[C@H]13 [Example 76, TFA salt] | Yes |
| CC(C)(C)c1cc2c(cc1O)[C@]13CCCC[C@@H]1[C@H](C2)NCC3 [Example 104, TFA salt] | Yes |

Task: Criterion: CC50 at 24 h strictly below 20 µM. Is it met by Oc1ccc(Nc2cc3c(cc2O)[C@]24CCCC[C@@H]2[C@H](C3)NCC4)c(O)c1 [Example 45, TFA salt] ?
Output: No

Task: Dear reviewer, please state whether Oc1cc2c(cc1Nc1ccc3[nH]ncc3c1)C[C@@H]1NCC[C@]23CCCC[C@H]13 [Example 69, TFA salt] has CC50 at 24 h strictly beneath 20 µM.
Output: No

Cited source: patent US20120122848A1
